Experiment: Cytotoxicity MTT assay
Assay type: cell-based
Details: human, HelaM cells, concentration that causes 50% reduction in cell viability
Experimental: Cytotoxicity of the compounds was evaluated using the MTT assay. […] Cell viability was determined by measuring the absorbance of the reduced formazan, giving a purple color, at 540 nm and 690 nm. The absorbance measured at 690 nm was automatically subtracted from the absorbance at 540 nm, to eliminate the effects of non-specific absorption. The percent cytotoxicity achieved by the compounds was calculated according to standard methods. […]
Form field: CC50 at 72 h (one value per entry).
property.measured: CC50 at 72 h

                            smiles_notation  property_measured  endpoint_value
0  CC(C)(C)CN1CCC(c2nc(-c3cncnc3)ncc2-c2cccc(C#N)c2)CC1       CC50 at 72 h    > 10.4 µg/mL
1  COc1cccc(-c2cnc(-c3ccncc3)nc2C2CCN(Cc3ccco3)CC2)c1       CC50 at 72 h    > 10.7 µg/mL
2  COc1cccc(-c2cnc(-c3ccncc3)nc2C2CCN(Cc3cccc(F)c3)CC2)c1       CC50 at 72 h     > 4.5 µg/mL
3  CC(C)(C)CN1CCC(c2nc(C(F)(F)F)ncc2-c2cccc(C#N)c2)CC1       CC50 at 72 h    > 10.1 µg/mL
4  COc1cccc(-c2cnc(-c3ccncc3)nc2C2CCN(Cc3ccccc3)CC2)c1       CC50 at 72 h      > 11 µg/mL
5  COc1cccc(-c2cnc(-c3ccncc3)nc2C2CCN(Cc3ccsc3)CC2)c1       CC50 at 72 h    > 11.1 µg/mL
6  COc1cccc(-c2cnc(-c3ccncc3)nc2C2CCN(CC(C)(C)C)CC2)c1       CC50 at 72 h    > 10.5 µg/mL
